- Tested on: Raji
- ASSAY_DETAILS: Cytotoxicity against Homo sapiens (human) Raji cells after 96 hr by MTT assay
- Assay type: functional, cell-based
IC16 strictly under 20 µM means t; at 20 µM or over means f.

MOLECULE: O=C1CCCC2=C1C(c1ccc(Br)cc1)c1c(c3ccccc3oc1=O)O2 (configuration not stated)
ASSIGNED_CATEGORY: f
--
MOLECULE: Cc1ccccc1C1C2=C(CCCC2=O)Oc2c1c(=O)oc1ccccc21 (configuration not stated)
ASSIGNED_CATEGORY: f
--
MOLECULE: O=C1CCCC2=C1C(c1cccc(Br)c1)c1c(c3ccccc3oc1=O)O2 (configuration not stated)
ASSIGNED_CATEGORY: t
--
MOLECULE: COc1cccc(C2C3=C(CCCC3=O)Oc3c2c(=O)oc2ccccc32)c1 (configuration not stated)
ASSIGNED_CATEGORY: t
--
MOLECULE: O=C1CCCC2=C1C(c1cccc(Cl)c1)c1c(c3ccccc3oc1=O)O2 (configuration not stated)
ASSIGNED_CATEGORY: f
--
MOLECULE: COc1ccccc1C1C2=C(CCCC2=O)Oc2c1c(=O)oc1ccccc21 (configuration not stated)
ASSIGNED_CATEGORY: f
--
MOLECULE: Cc1ccc(C2C3=C(CCCC3=O)Oc3c2c(=O)oc2ccccc32)cc1 (configuration not stated)
ASSIGNED_CATEGORY: t
--
MOLECULE: O=C1CCCC2=C1C(c1ccc([N+](=O)[O-])cc1)c1c(c3ccccc3oc1=O)O2 (configuration not stated)
ASSIGNED_CATEGORY: f
--
MOLECULE: O=C1CCCC2=C1C(c1ccccc1[N+](=O)[O-])c1c(c3ccccc3oc1=O)O2 (configuration not stated)
ASSIGNED_CATEGORY: t
--
MOLECULE: O=C1CCCC2=C1C(c1cccc([N+](=O)[O-])c1)c1c(c3ccccc3oc1=O)O2 (configuration not stated)
ASSIGNED_CATEGORY: f
--
MOLECULE: O=C1CCCC2=C1C(c1ccc(Cl)cc1)c1c(c3ccccc3oc1=O)O2 (configuration not stated)
ASSIGNED_CATEGORY: f
--
MOLECULE: O=C1CCCC2=C1C(c1ccccc1Cl)c1c(c3ccccc3oc1=O)O2 (configuration not stated)
ASSIGNED_CATEGORY: f

---

- Test system: MCF7
- ASSAY_DETAILS: Cytotoxicity against Homo sapiens (human) MCF7 cells after 96 hr by MTT assay
- Format: functional, cell-based
- CONDITION_DETAILS: MCF7, 96 h
pIC50: −log10 of the molar value.

COMPOUND: COc1ccccc1C1C2=C(CCCC2=O)Oc2c1c(=O)oc1ccccc21 (stereo unspecified)
QUALIFIER_OPERATOR: <
pIC50: 4.00
//
COMPOUND: Cc1ccccc1C1C2=C(CCCC2=O)Oc2c1c(=O)oc1ccccc21 (stereo unspecified)
QUALIFIER_OPERATOR: <
pIC50: 4.00
//
COMPOUND: O=C1CCCC2=C1C(c1cccc(Cl)c1)c1c(c3ccccc3oc1=O)O2 (stereo unspecified)
QUALIFIER_OPERATOR: <
pIC50: 4.30
//
COMPOUND: O=C1CCCC2=C1C(c1ccccc1[N+](=O)[O-])c1c(c3ccccc3oc1=O)O2 (stereo unspecified)
QUALIFIER_OPERATOR: =
pIC50: 4.23
//
COMPOUND: Cc1cccc(C2C3=C(CCCC3=O)Oc3c2c(=O)oc2ccccc32)c1 (stereo unspecified)
QUALIFIER_OPERATOR: <
pIC50: 4.00
//
COMPOUND: O=C1CCCC2=C1C(c1ccccc1Cl)c1c(c3ccccc3oc1=O)O2 (stereo unspecified)
QUALIFIER_OPERATOR: <
pIC50: 4.60
//
COMPOUND: COc1cccc(C2C3=C(CCCC3=O)Oc3c2c(=O)oc2ccccc32)c1 (stereo unspecified)
QUALIFIER_OPERATOR: =
pIC50: 4.23
//
COMPOUND: O=C1CCCC2=C1C(c1ccccc1Br)c1c(c3ccccc3oc1=O)O2 (stereo unspecified)
QUALIFIER_OPERATOR: <
pIC50: 4.00
//
COMPOUND: O=C1CCCC2=C1C(c1cccc(Br)c1)c1c(c3ccccc3oc1=O)O2 (stereo unspecified)
QUALIFIER_OPERATOR: <
pIC50: 4.30
//
COMPOUND: O=C1CCCC2=C1C(c1ccc([N+](=O)[O-])cc1)c1c(c3ccccc3oc1=O)O2 (stereo unspecified)
QUALIFIER_OPERATOR: =
pIC50: 4.21
//
COMPOUND: Cc1ccc(C2C3=C(CCCC3=O)Oc3c2c(=O)oc2ccccc32)cc1 (stereo unspecified)
QUALIFIER_OPERATOR: <
pIC50: 4.00
//
COMPOUND: O=C1CCCC2=C1C(c1cccc([N+](=O)[O-])c1)c1c(c3ccccc3oc1=O)O2 (stereo unspecified)
QUALIFIER_OPERATOR: =
pIC50: 4.10
//
COMPOUND: COc1ccc(C2C3=C(CCCC3=O)Oc3c2c(=O)oc2ccccc32)cc1 (stereo unspecified)
QUALIFIER_OPERATOR: =
pIC50: 4.12
//
COMPOUND: O=C1CCCC2=C1C(c1ccc(Cl)cc1)c1c(c3ccccc3oc1=O)O2 (stereo unspecified)
QUALIFIER_OPERATOR: <
pIC50: 4.00
//
COMPOUND: COc1cccc2c1C(=O)c1c(O)c3c(c(O)c1C2=O)C[C@@](O)(C(=O)CO)C[C@@H]3O[C@H]1C[C@H](N)[C@H](O)[C@H](C)O1
QUALIFIER_OPERATOR: =
pIC50: 6.68
//
COMPOUND: O=C1CCCC2=C1C(c1ccc(Br)cc1)c1c(c3ccccc3oc1=O)O2 (stereo unspecified)
QUALIFIER_OPERATOR: =
pIC50: 4.31
